Listed next: entries and their corresponding relative affinity.
System: T1, HLA-DR3 (HLA-DRB1*03:01) (human)
T1 construct: mature; purified from homozygous EBV-transformed lymphoblastoid cells with antibody L243
Procedure Details: competition ELISA vs biotin-MT 2-16
No end group written: not given here.
Keep it simple and answer with nothing but the number.

Some binders with recorded relative affinity:
# Binder, relative affinity
data = [
    ("H-KNVVMVNQGLTKHMT-NH2 (not fully specified) [CCNB1 385-399]", 228),
    ("REVTGNMRAILIDWL-NH2 [CCNB1 195-209]", 1),
    ("SKINAENKAKINMAG-NH2 [CCNB1 9-23]", 22),
    ("KDIYAYLRQLEEEQA-NH2 [CCNB1 172-186]", 33),
    ("MELTMLDYDMVHFPP-NH2 [CCNB1 327-341]", 32),
]

Next binder, please.
For record QGLTKHMTVKNKYAT-NH2 [CCNB1 392-406] the listed relative affinity is 408
